Assay: Plasma protein binding (PPB), mouse
Assay type: in vitro ADME
Recorded measurements of fraction unbound, one per entry

Past entries and their recorded results:
{"compound": "CCOc1cc(N(C)C)ccc1C1CC(=O)Nc2cc3c(cc21)OCCO3 (stereo not shown) [FQI-37]", "fraction unbound": 0.05}
{"compound": "CCOc1cc(N(C)C)ccc1-c1cc(=O)[nH]c2cc3c(cc12)OCCO3 [FQI2-37]", "fraction unbound": 0.06}
{"compound": "CCOc1cc(N(C)C)ccc1-c1cc(=O)[nH]c2cc3c(cc12)OCO3 [FQI2-34]", "fraction unbound": 0.07}

Pending compound:
Fill in: fraction unbound of CCOc1cc(N(C)C)ccc1C1CC(=O)Nc2cc3c(cc21)OCO3 (stereo not shown) [FQI-34] is ___ 0.05
